experiment: Oral bioavailability in mouse at 30 mg/kg; type: ADME, organism-based; conditions: in vivo
reported.property: bioavailability (%)
State the answer as a number, implicitly in %.

Output bioavailability of `CC(C)c1onc(-c2c(Cl)cccc2Cl)c1COc1ccc(-c2ccc3c(C(=O)O)cccc3c2)cc1`
3.9

* * *

Below is a list of entries, each paired with its recorded pEC50 value.
biological target: Bile acid receptor (Homo sapiens); test: Agonist activity at FXR expressed in african green monkey CV1 cells by luciferase reporter transient transfection assay; assay type: functional, cell-based, CV-1
Sequence (Q96RI1 whole entry): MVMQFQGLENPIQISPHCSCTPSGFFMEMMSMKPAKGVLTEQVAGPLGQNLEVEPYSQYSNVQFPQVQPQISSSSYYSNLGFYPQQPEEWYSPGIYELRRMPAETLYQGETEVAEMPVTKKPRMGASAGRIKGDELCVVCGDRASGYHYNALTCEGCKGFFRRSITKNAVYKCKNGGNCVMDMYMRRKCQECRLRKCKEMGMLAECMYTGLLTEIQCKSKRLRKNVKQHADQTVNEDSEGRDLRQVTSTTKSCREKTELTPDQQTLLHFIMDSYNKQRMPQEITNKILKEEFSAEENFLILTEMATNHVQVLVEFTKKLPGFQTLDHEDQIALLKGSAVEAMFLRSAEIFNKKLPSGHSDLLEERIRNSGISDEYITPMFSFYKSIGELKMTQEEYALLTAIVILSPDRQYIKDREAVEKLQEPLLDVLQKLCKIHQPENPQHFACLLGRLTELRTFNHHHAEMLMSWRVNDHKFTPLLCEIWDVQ
pEC50 field: float, defined as -log10 of concentration (mol/L).

Example results:
{"columns": ["mol.smiles", "test.system", "measurement"],
 "data": [
  ["CC(C)c1onc(-c2c(Cl)cccc2Cl)c1COc1ccc(-c2ccc3cc(C(=O)O)ccc3c2)cc1", "Bile acid receptor (Homo sapiens)", 7.35],
  ["CC(C)c1onc(-c2c(Cl)cccc2Cl)c1COc1ccc(-c2ccc3c(C(=O)O)cccc3c2)cc1", "Bile acid receptor (Homo sapiens)", 7.17],
  ["CC(C)c1onc(-c2c(Cl)cccc2Cl)c1COc1ccc(-c2ccc3cccc(C(=O)O)c3c2)cc1", "Bile acid receptor (Homo sapiens)", 5.48]
]}

Note down pEC50 recorded for `CC(C)c1onc(-c2c(Cl)cccc2Cl)c1COc1ccc(-c2ccc3ccc(C(=O)O)cc3c2)cc1`
6.30

* * *

target: UniProt:P08684; assay: Inhibition of CYP3A4 in pooled human liver microsome using nifedipine substrate; type: ADME, microsomes
Sequence (P08684 whole entry): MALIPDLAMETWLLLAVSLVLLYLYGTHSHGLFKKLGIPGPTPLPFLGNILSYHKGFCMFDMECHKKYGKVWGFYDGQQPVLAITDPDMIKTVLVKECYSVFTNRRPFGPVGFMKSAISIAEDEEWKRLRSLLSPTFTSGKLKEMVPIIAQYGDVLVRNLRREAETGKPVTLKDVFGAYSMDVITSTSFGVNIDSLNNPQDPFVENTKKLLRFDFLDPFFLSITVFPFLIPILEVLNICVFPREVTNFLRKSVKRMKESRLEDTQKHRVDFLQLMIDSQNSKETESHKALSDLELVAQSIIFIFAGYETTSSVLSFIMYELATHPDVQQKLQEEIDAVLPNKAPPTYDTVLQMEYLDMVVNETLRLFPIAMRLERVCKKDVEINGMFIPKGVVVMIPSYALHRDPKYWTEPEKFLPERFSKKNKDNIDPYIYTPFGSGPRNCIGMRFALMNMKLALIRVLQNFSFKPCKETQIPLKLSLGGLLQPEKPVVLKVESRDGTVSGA
reported.property: pIC50
pIC50 field: float, defined as -log10 of concentration (mol/L).

Give pIC50 for `CC(C)c1onc(-c2c(Cl)cccc2Cl)c1COc1ccc(-c2ccc3c(C(=O)O)cccc3c2)cc1`
5.06

* * *

Molecular target: PXR (Homo sapiens)
Sequence (O75469 whole entry): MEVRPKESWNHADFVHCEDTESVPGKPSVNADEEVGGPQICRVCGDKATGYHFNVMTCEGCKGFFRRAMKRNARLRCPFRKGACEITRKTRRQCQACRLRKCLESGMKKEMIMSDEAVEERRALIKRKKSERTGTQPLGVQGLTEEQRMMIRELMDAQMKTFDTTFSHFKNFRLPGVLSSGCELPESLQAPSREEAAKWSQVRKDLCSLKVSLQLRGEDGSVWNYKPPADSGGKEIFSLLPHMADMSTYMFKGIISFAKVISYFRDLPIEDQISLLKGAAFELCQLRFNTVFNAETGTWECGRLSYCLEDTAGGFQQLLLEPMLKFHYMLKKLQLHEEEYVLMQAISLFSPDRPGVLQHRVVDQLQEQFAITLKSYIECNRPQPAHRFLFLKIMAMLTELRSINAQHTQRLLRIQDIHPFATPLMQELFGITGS
Test: Agonist activity at PXR by SPA assay
Format: functional
reported.property: XC50 (µM)
Output spec: scalar in µM, unitless text.

Please indicate XC50 recorded for `CC(C)c1onc(-c2c(Cl)cccc2Cl)c1COc1ccc(-c2ccc3c(C(=O)O)cccc3c2)cc1`
3.1

* * *

test: Half life in iv dosed Beagle dog; assay type: ADME, organism-based, Canis lupus familiaris; settings: in vivo
reported.property: half-life (h)
A number alone suffices; assume h.

State its half-life for this molecule: `CC(C)c1onc(-c2c(Cl)cccc2Cl)c1COc1ccc(-c2ccc3c(C(=O)O)cccc3c2)cc1`
4.17

* * *

assay: Half life in iv dosed rat; format: ADME, organism-based; conditions: in vivo
reported.property: half-life (min)
Only the number, expressed in min, is required.

Provide measured half-life value, entry: `CC(C)c1onc(-c2c(Cl)cccc2Cl)c1COc1ccc(-c2ccc3c(C(=O)O)cccc3c2)cc1`
24
